Data credit: the Human Domainome abundance scans (Beltran et al. 2025)

abundance fitness for assorted variants
B1: Intersectin-1, residues 909 to 971; numbered along this chain, Q15811 (parent)
chain: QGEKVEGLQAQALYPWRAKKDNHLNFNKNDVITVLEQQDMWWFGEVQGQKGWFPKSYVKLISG

Variants of: B1
Assay: abundance fitness (aPCA) (normalised: wild type 0, dead -1); higher = more abundant; growth selection in yeast, the domain comes from the species named
Conditions: Homo sapiens
reported_property: abundance fitness

>>> print(df.to_string())
   mutation_label  reported_property  observed_result
0            V46A  abundance fitness            0.015
1            G51A  abundance fitness           -0.408
2            K20R  abundance fitness           -0.078
3            Q38M  abundance fitness           -0.061
